These entries and their values trace back to patent US9499550B2.

- System: HCV genotype 1b (Con1) replicon in HUH-7 cells
- assay notes: HCV replicon luciferase reporter assay, genotype 1b
- Assay type: cell-based
- measurement setup: Hepatitis C virus, Huh-7, 72 h, HCV genotype 1b replicon luciferase, 3 days incubation, read-out: LE_1b (EC50, range)
pEC50: −log10 of the molar value.
endpoint name: pEC50

Please review the entries below; each comes with its answer.
C[C@@H]1CC/C=C\[C@@H]2C[C@@]2(C(=O)NS(=O)(=O)C2CC2)NC(=O)[C@@H]2C[C@@H](Oc3nccc4ccc(F)cc34)CN2C(=O)[C@@H](NC(=O)OC(C)(C)C)[C@H](C)C1: > 8.26
[2H]C([2H])([2H])C(C)(OC(=O)N[C@@H]1C(=O)N2C[C@H](Oc3nccc4cc(OC(C)C)ccc34)C[C@H]2C(=O)N[C@]2(C(=O)NS(=O)(=O)C3(C)CC3)C[C@H]2/C=C\CC[C@H](C)C[C@H]1C)C([2H])([2H])[2H]: 6.99 to 8.32
CCC(CC)(OC(=O)N[C@@H]1C(=O)N2C[C@H](Oc3nccc4c5c(ccc34)OCCO5)C[C@H]2C(=O)N[C@]2(C(=O)NS(=O)(=O)C3CC3)C[C@H]2/C=C\CC[C@H](C)C[C@H]1C)C(F)(F)F: > 8.26
[2H]C([2H])([2H])C(OC(=O)N[C@@H]1C(=O)N2C[C@H](Oc3nnc(OCC)c4ccccc34)C[C@H]2C(=O)N[C@]2(C(=O)NS(=O)(=O)C3CC3)C[C@H]2/C=C\CC[C@@H](C)C[C@H]1C)(C([2H])([2H])[2H])C(F)(F)F: > 8.26
C[C@@H]1CC/C=C\[C@@H]2C[C@@]2(C(=O)NS(=O)(=O)C2(CF)CC2)NC(=O)[C@@H]2C[C@@H](Oc3ncc(N4CCOCC4)c4ccccc34)CN2C(=O)[C@@H](NC(=O)OC(C)(C)C(C)(F)F)[C@H](C)C1: 8.30 to 9.00
COc1ccc2c(O[C@@H]3C[C@H]4C(=O)N[C@]5(C(=O)NS(=O)(=O)C6(CF)CC6)C[C@H]5/C=C\CC[C@@H](C)C[C@@H](C)[C@H](NC(=O)OC(C)(C)C)C(=O)N4C3)nccc2c1: > 8.26
CC[C@@H]1C[C@H](C)CC/C=C\[C@@H]2C[C@@]2(C(=O)NS(=O)(=O)C2(C)CC2)NC(=O)[C@@H]2C[C@@H](Oc3nc(-c4ccc(OC(C)C)cn4)cc4cc(OC)ccc34)CN2C(=O)[C@H]1NC(=O)OC(C)(C)C(F)(F)F: 8.30 to 9.00
CC(C)Oc1cc2ccccc2c(O[C@@H]2C[C@H]3C(=O)N[C@]4(C(=O)NS(=O)(=O)C5(C)CC5)C[C@H]4/C=C\CC[C@@H](C)C[C@@H](C)[C@H](NC(=O)OC(C)(C)C(C)(F)F)C(=O)N3C2)n1: 9.30 to 10.00
COc1ccc2c(O[C@@H]3C[C@H]4C(=O)N[C@]5(C(=O)NS(=O)(=O)C6(F)CC6)C[C@H]5/C=C\CC[C@@H](C)C[C@@H](C)[C@H](NC(=O)OCC(C)C)C(=O)N4C3)nccc2c1: > 8.26
[2H]C([2H])([2H])C(C)(OC(=O)N[C@@H]1C(=O)N2C[C@H](Oc3nccc4cc(OC)ccc34)CC2C(=O)N[C@]2(C(=O)NS(=O)(=O)C3(C)CC3)C[C@H]2/C=C\CC[C@H](C)C[C@H]1C)C([2H])([2H])[2H] (stereo partly drawn): > 8.26

query: # pEC50 lookup, item COc1cnc(O[C@@H]2C[C@H]3C(=O)N[C@]4(C(=O)NS(=O)(=O)C5CC5)C[C@H]4/C=C\CC[C@H](C)C[C@@H](C)[C@H](NC(=O)OC(C)(C)C)C(=O)N3C2)c2cc(Cl)ccc12
result: 8.30 to 9.00

query: # pEC50 lookup, item C[C@@H]1CC/C=C\[C@@H]2C[C@@]2(C(=O)NS(=O)(=O)C2CC2)NC(=O)[C@@H]2C[C@@H](Oc3nccc4c5c(ccc34)N(C)CCO5)CN2C(=O)[C@@H](NC(=O)OC(C)(C)C)[C@H](C)C1
result: > 8.26

query: # pEC50 lookup, item COc1ccc2c(O[C@@H]3C[C@H]4C(=O)N[C@]5(C(=O)NS(=O)(=O)C6CC6)C[C@H]5/C=C\CC[C@@H](C)C[C@@H](C)[C@H](NC(=O)OC(C)(C)C(F)(F)F)C(=O)N4C3)nc(-c3ccc(N4CCOCC4)cc3)cc2c1
result: > 8.26

query: # pEC50 lookup, item [2H]C([2H])([2H])C(OC(=O)N[C@@H]1C(=O)N2C[C@H](Oc3nccc4cc(OCCC)ccc34)C[C@H]2C(=O)N[C@]2(C(=O)NS(=O)(=O)C3CC3)C[C@H]2/C=C\CC[C@@H](C)C[C@H]1C)(C([2H])([2H])[2H])C(F)(F)F
result: > 8.26

query: # pEC50 lookup, item COc1ccc2c(O[C@@H]3C[C@H]4C(=O)N[C@]5(C(=O)NS(=O)(=O)C6CC6)C[C@H]5/C=C\CC[C@H](C)C[C@@H](C)[C@H](NC(=O)O[C@H](C)C(F)(F)F)C(=O)N4C3)nc(-c3ccc(OC(C)C)cn3)cc2c1
result: > 8.26
